Target: human PLC-β2 (Homo sapiens)
Sequence (Q00722 whole entry): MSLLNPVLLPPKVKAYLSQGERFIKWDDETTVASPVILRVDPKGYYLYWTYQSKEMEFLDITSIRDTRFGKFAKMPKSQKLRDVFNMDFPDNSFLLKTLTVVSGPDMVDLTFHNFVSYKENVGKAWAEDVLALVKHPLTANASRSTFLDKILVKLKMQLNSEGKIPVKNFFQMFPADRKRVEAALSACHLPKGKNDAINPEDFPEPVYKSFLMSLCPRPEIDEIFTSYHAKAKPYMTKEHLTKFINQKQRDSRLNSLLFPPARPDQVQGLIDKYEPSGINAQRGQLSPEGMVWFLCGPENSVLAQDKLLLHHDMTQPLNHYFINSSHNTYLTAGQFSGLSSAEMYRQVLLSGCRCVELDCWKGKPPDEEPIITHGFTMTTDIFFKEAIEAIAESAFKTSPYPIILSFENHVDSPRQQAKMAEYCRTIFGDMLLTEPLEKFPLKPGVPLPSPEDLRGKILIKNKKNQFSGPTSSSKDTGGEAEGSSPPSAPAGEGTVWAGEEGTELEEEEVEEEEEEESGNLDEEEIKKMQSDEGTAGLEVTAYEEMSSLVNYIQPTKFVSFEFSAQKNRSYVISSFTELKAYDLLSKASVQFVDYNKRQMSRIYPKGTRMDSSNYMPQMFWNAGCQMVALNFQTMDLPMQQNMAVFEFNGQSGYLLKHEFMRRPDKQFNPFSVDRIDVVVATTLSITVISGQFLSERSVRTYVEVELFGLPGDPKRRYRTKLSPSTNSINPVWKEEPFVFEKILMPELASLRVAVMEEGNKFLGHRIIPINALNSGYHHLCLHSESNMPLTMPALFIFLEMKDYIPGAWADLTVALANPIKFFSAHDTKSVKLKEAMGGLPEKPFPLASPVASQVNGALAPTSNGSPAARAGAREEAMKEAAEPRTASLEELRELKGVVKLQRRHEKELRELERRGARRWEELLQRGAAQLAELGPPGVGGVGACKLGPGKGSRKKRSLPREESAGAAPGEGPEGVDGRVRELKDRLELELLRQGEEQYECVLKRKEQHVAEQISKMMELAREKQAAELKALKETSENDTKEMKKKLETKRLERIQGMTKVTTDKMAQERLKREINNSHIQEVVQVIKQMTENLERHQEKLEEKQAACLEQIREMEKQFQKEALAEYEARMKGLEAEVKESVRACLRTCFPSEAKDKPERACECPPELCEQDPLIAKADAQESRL
Assay: PLC assay using FlashPlates (96-well, immobilized [3H]PIP2 substrate)
Settings: purified recombinant human PLC-β2 or cytosolic human PLC-β2; hydrolysis of [3H]PIP2
From the text: The hydrolysis of phosphatidylinositol-4,5-bisphosphate (PIP2) by a specific phospholipase C-β2 (PLC-β2) produces two intracellular messengers, diacylglycerol (DAG) and inositol 1,4,5-trisphosphate (IP3), which mediate the activation of protein kinase C and intracellular Ca^2+ release. […] The automated PLC-β2 assay described herein provides a convenient method for quantitative measurement of phospholipase C activities in a high throughput fashion. […]
observation type: pIC50
Expect pIC50 as a plain number equal to -log10 of the molar concentration.

Some solved cases for reference:
- compound: "O=C(Nc1ccccc1)Nc1cc(C(=O)N2CCCNCC2)ccc1N1CCN(C(c2ccccc2)c2ccccc2)CC1 [Cpd 24]"
  pIC50: 6.06
- compound: "CN(C)c1ccc(NC(=O)Nc2cc(C(=O)N3CCNCC3)ccc2N2CCN(C(c3ccccc3)c3ccccc3)CC2)cc1 [Cpd 58]"
  pIC50: 5.11
- compound: "O=C(Nc1cc(C(=O)N2CCCNCC2)ccc1N1CCN(C(c2ccccc2)c2ccccc2)CC1)NC1CCCCC1 [Cpd 25]"
  pIC50: 5.59
- compound: "O=C(Nc1cc(C(=O)N2CCNCC2)ccc1N1CCN(C(c2ccccc2)c2ccccc2)CC1)NC1CCCCC1 [Cpd 38]"
  pIC50: 5.66
- compound: "NC(=O)c1ccc(N2CCN(C3c4ccccc4-c4ccccc43)CC2)c(NC(=O)Nc2ccccc2)c1 [Cpd 9]"
  pIC50: 5.72
- compound: "CN(C)CCNC(=O)c1ccc(N2CCN(C(c3ccccc3)c3ccccc3)CC2)c(NC(=O)Nc2ccccc2)c1 [Cpd 29]"
  pIC50: 5.48
- compound: "O=C(Nc1ccccc1)Nc1cc(C(=O)N2CCNCC2)ccc1N1CCN(C2c3ccccc3-c3ccccc32)CC1 [Cpd 44]"
  pIC50: 5.64
- compound: "O=C(Nc1cc(C(=O)N2CCNCC2)ccc1N1CCN(C(c2ccc(F)cc2)c2ccc(F)cc2)CC1)NC1CCCCC1 [Cpd 47]"
  pIC50: 5.38

Given the compound NC(=O)c1ccc(N2CCN(C(c3ccc(F)cc3)c3ccc(F)cc3)CC2)c(NC(=O)Nc2ccc3c(c2)OCO3)c1 [Cpd 14] , what is its reported pIC50? 5.51

Given the compound COc1ccccc1N1CCN(c2ccc(C(N)=O)cc2NC(=O)Nc2ccccc2)CC1 [Cpd 1] , what is its reported pIC50? 4.63

Given the compound NC(=O)c1ccc(NC(=O)Nc2ccccc2)c(N2CCN(C(c3ccccc3)c3ccccc3)CC2)c1 [Cpd 93] , what is its reported pIC50? 5.74

Given the compound O=C(/C=C/c1ccccc1)NC(=O)Nc1cc(C(=O)N2CCNCC2)ccc1N1CCN(C(c2ccccc2)c2ccccc2)CC1 [Cpd 61] , what is its reported pIC50? 5.37

Given the compound CN1CCCN(C(=O)c2ccc(N3CCN(C(c4ccccc4)c4ccccc4)CC3)c(NC(=O)NC3CCCCC3)c2)CC1 [Cpd 31] , what is its reported pIC50? 5.18

Given the compound CN(C)c1ccc(NC(=O)Nc2cc(C(N)=O)ccc2N2CCN(C(c3ccc(F)cc3)c3ccc(F)cc3)CC2)cc1 [Cpd 19] , what is its reported pIC50? 5.54

Given the compound CN(C)CCNC(=O)c1ccc(N2CCN(C(c3ccccc3)c3ccccc3)CC2)c(NC(=O)NC2CCCCC2)c1 [Cpd 30] , what is its reported pIC50? 5.01

All figures here come from patent US20040235855A1.
